Tested on: human P-gp (PGP)
Assay: Membrane permeability in MDCKII/PGP cells
Format: in vitro ADME
Details: dog, MDCK-MDR1; MDCKII cells transfected with human PGP; read-out: Permeability MDCKII/PGP A-B (apical-basolateral flux)
test_readout: Papp A→B (×10⁻⁶ cm/s)

Reference set, count: 2
Query: Form field: reported Papp A→B of CC(=O)NC(Cc1c[nH]c2ccccc12)C(=O)NC(C)(C)C(=O)O (stereo not shown)
Response: 1.5

Query: Form field: reported Papp A→B of CC(C)(NC(=O)C(N)Cc1c[nH]c2ccccc12)C(=O)O (stereo not shown) [reference compound]
Response: 1.2

a: CC(C)(C)OC(=O)N/C(=C\c1c[nH]c2ccccc12)C(=O)NC(C)(C)C(N)=O [drawing 64]
b: CC(C)(NC(=O)C(Cc1c[nH]c2ccccc12)NC=O)C(=O)O (stereo not shown)
Query: For the two items a and b , which reports the higher Papp A→B value? Bench note: the answer is the label of the chosen record.
Response: a
(a: 10.6 ×10⁻⁶ cm/s, b: 1.3 ×10⁻⁶ cm/s)

###

Target: Aβ monomers (Homo sapiens)
Construct: Aβ monomers were covalently coupled to one flow cell of CM7 sensor chips
Sequence (P05067 672-713 limits assumed): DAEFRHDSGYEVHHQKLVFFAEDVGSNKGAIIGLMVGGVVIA
Experiment: SPR binding assay (BIACORE X100)
Details: immobilized Aβ monomers, 25° C., steady-state; mean ± SD; read-out: SPR binding IC50 [nM] +/− SD (repeats)
Non-standard residues stand in square brackets, D forms with d. Residues, ends and D or L forms follow the SMILES beside them. NMeAib = CNC(C)(C)C(=O)O; Aib = CC(C)(N)C(=O)O
test_readout: IC50 (nM)

Query: Form field: reported IC50 of CC(C)(C)OC(=O)N/C(=C\c1c[nH]c2ccccc12)C(=O)NC(C)(C)C(N)=O
Response: 1.5

A: CN(C)C(=O)C(C)(C)NC(=O)[C@H](N)Cc1c[nH]c2ccccc12 [Compound F] (H-[dW]-[Aib]-NMe2)
B: CNC(=O)C(C)(C)N(C)C(=O)[C@@H](Cc1c[nH]c2ccccc12)NC(C)=O [Compound V] (Ac-[dW]-[NMeAib]-NHMe)
Query: For the two items A and B , which reports the higher IC50 value? Bench note: the answer is the label of the chosen record.
Response: A

Recorded values, source patent US9630989B2.
